Source listed as patent US10226448B2.

// reported pEC50 for each item listed
Tested on: IL-6 in THP-1 cells
Assay: IL-6 inhibition in LPS-stimulated THP-1 human monocyte cells (HTRF)
Format: cell-based
Conditions: IL-6 inhibition, LPS-stimulated THP-1 cells, HTRF, 10-point dose-response starting from 10 μM
pEC50: −log10 of the molar value.
ASSAY METRIC: pEC50

1) c1cncc(-c2cnc3[nH]nc(-c4cc5c(N6CCCCC6)nccc5[nH]4)c3c2)c1 | 6.32
2) CC(C)C(=O)Nc1cncc(-c2cnc3[nH]nc(-c4cc5c(-c6cccc(F)c6)nccc5[nH]4)c3c2)c1 | 6.69
3) CN1CCN(c2nccc3[nH]c(-c4n[nH]c5ncc(-c6cncc(N)c6)cc45)cc23)CC1 | 6.15
4) O=C(Nc1cncc(-c2cnc3[nH]nc(-c4cc5c(-c6ccccc6F)nccc5[nH]4)c3c2)c1)C1CC1 | 7.28
5) Cc1ccncc1-c1cnc2[nH]nc(-c3cc4c(-c5cccs5)nccc4[nH]3)c2c1 | 5.29
6) CS(=O)(=O)NCc1cc(F)cc(-c2nccc3[nH]c(-c4n[nH]c5ncc(-c6cncc(NC(=O)C7CCCCC7)c6)cc45)cc23)c1 | 5.43
7) c1cncc(-c2cnc3[nH]nc(-c4cc5cnccc5[nH]4)c3c2)c1 | 6.66
8) CCCC(=O)Nc1cncc(-c2cnc3[nH]nc(-c4cc5cnccc5[nH]4)c3c2)c1 | 5.99
9) CN1CCN(c2nccc3[nH]c(-c4n[nH]c5ncc(-c6cncc(CN7CCC(F)(F)C7)c6)cc45)cc23)CC1 | 6.40
10) Fc1ccccc1-c1nccc2[nH]c(-c3n[nH]c4ncc(-c5cn[nH]c5)cc34)cc12 | 7.00
11) CN1CCN(c2nccc3[nH]c(-c4n[nH]c5ncc(-c6cncc(CN7CCCCC7)c6)cc45)cc23)CC1 | 5.48

###

System: Wnt activity (Sp5-Luc reporter, TCF/LEF binding sites) in SW480 colon carcinoma cells
Assay: Wnt activity screening assay: Sp5-Luc reporter gene assay in SW480 cells
Type: cell-based
Conditions: Homo sapiens, SW480; read-out: percent inhibition at 10 μM
Decision: inhibition at 10 µM >= 20% yields fulfilled, all other cases yield not fulfilled.

1) CN1CCN(c2nccc3[nH]c(-c4n[nH]c5ncc(-c6cncc(NC(=O)CC7CCNCC7)c6)cc45)cc23)CC1 | not fulfilled
2) Cc1ccncc1-c1cnc2[nH]nc(-c3cc4c(-c5ccc(F)cc5)nccc4[nH]3)c2c1 | fulfilled
3) CCCCC(=O)Nc1cncc(-c2cnc3[nH]nc(-c4cc5c(-c6ccc(F)cc6)nccc5[nH]4)c3c2)c1 | fulfilled
4) CN1CCN(c2nccc3[nH]c(-c4n[nH]c5ncc(-c6cncc(CN7CCCCC7)c6)cc45)cc23)CC1 | fulfilled
5) CC(C)(C)C(=O)Nc1cncc(-c2cnc3[nH]nc(-c4cc5c(N6CCCCC6)nccc5[nH]4)c3c2)c1 | not fulfilled
6) O=C(Nc1cncc(-c2cnc3[nH]nc(-c4cc5cnccc5[nH]4)c3c2)c1)c1ccccc1 | fulfilled

###

Test system: IL-6 in THP-1 cells
Assay: IL-6 inhibition in LPS-stimulated THP-1 human monocyte cells (HTRF)
Type: cell-based
Conditions: IL-6 inhibition, LPS-stimulated THP-1 cells, HTRF, 10-point dose-response starting from 10 μM
Protocol: Compound Screening: THP-1 cells were cultured in basal media with 1% FBS for 24 hours before the start of the assay. […] THP-1 cells were plated at 5000 cells/well in the 384-well plates and incubated at 37° C. for 2 h. […] Following incubation for 3 hrs at room temperature, Homogeneous Time-Resolved Fluorescence (HTRF) was measured using the Envision (Perkin Elmer) at 665 nm and […]. The ratio of fluorescence at 665 nm to 620 nm was used as a readout for IL6 quantification. […]
pEC50: −log10 of the molar value.
// reported pEC50 for each item listed
ASSAY METRIC: pEC50

1) CN1CCN(c2nccc3[nH]c(-c4n[nH]c5ncc(-c6cncc(NC(=O)c7ccccc7)c6)cc45)cc23)CC1 | 5.16
2) O=C(Nc1cncc(-c2cnc3[nH]nc(-c4cc5c(N6CCCCC6)nccc5[nH]4)c3c2)c1)C1CC1 | 5.60
3) c1ccc(-c2cnc3[nH]nc(-c4cc5cnccc5[nH]4)c3c2)nc1 | 5.43

###

// reported EC50 for each item listed
Test system: IL-6 in THP-1 cells
Assay: IL-6 inhibition in LPS-stimulated THP-1 human monocyte cells (HTRF)
Assay type: cell-based
Settings: IL-6 inhibition, LPS-stimulated THP-1 cells, HTRF, 10-point dose-response starting from 10 μM
ASSAY METRIC: EC50 (nM)

1) CCNCc1cncc(-c2cnc3[nH]nc(-c4cc5c(-c6cc(F)cc(CNS(C)(=O)=O)c6)nccc5[nH]4)c3c2)c1 [Compound 482] | 2240
2) CC(C)(C)CC(=O)Nc1cncc(-c2cnc3[nH]nc(-c4cc5c(N6CCCCC6)nccc5[nH]4)c3c2)c1 [Compound 184] | 2260
3) CC(C)CC(=O)Nc1cncc(-c2cnc3[nH]nc(-c4cc5c(-c6ccc(F)cc6)nccc5[nH]4)c3c2)c1 [Compound 30] | 1550
4) O=C(Nc1cncc(-c2cnc3[nH]nc(-c4cc5c(-c6ccccc6F)nccc5[nH]4)c3c2)c1)C1CCCC1 [Compound 78] | 505
5) CC(C)(C)C(=O)Nc1cncc(-c2cnc3[nH]nc(-c4cc5c(-c6ccc(F)cc6)nccc5[nH]4)c3c2)c1 [Compound 36] | 3230
6) Nc1cncc(-c2cnc3[nH]nc(-c4cc5c(-c6ccccc6F)nccc5[nH]4)c3c2)c1 [Compound 59] | 198
7) CC(C)(C)CC(=O)Nc1cncc(-c2cnc3[nH]nc(-c4cc5c(-c6ccc(F)cc6)nccc5[nH]4)c3c2)c1 [Compound 44] | 2040
8) CCC(=O)Nc1cncc(-c2cnc3[nH]nc(-c4cc5c(-c6cccc(F)c6)nccc5[nH]4)c3c2)c1 [Compound 1] | 242
9) CN(C)Cc1cncc(-c2cnc3[nH]nc(-c4cc5c(-c6cccc(F)c6)nccc5[nH]4)c3c2)c1 [Compound 13] | 6420
10) c1cc2[nH]c(-c3n[nH]c4ncc(-c5cncc(CN6CCCCC6)c5)cc34)cc2c(N2CCCCC2)n1 [Compound 183] | 4800
11) CCCCC(=O)Nc1cncc(-c2cnc3[nH]nc(-c4cc5cnccc5[nH]4)c3c2)c1 [Compound 271] | 2860

###

// reported inhibition at 10 µM for each item listed
Test system: LL29 cells (primary human fibroblasts derived from IPF patients), α-smooth muscle actin
Experiment: Inhibition of the fibrotic process: αSMA staining in TGF-β1 treated primary human fibroblasts from IPF patients (LL29 cells)
Assay type: cell-based
Settings: Fibroblast, read-out: percent inhibition at 10 μM
ASSAY METRIC: inhibition at 10 µM (%)

1) CC(C)CC(=O)Nc1cncc(-c2cnc3[nH]nc(-c4cc5c(N6CCN(C)CC6)nccc5[nH]4)c3c2)c1 [Compound 226] | 0
2) CN1CCN(c2nccc3[nH]c(-c4n[nH]c5ncc(-c6cncc(N)c6)cc45)cc23)CC1 [Compound 227] | 0
3) CC(C)(C)C(=O)Nc1cncc(-c2cnc3[nH]nc(-c4cc5c(N6CCCCC6)nccc5[nH]4)c3c2)c1 [Compound 176] | 28.2
4) CS(=O)(=O)NCc1cc(F)cc(-c2nccc3[nH]c(-c4n[nH]c5ncc(-c6cncc(NC(=O)C7CCC7)c6)cc45)cc23)c1 [Compound 497] | 0
5) CN1CCN(c2nccc3[nH]c(-c4n[nH]c5ncc(-c6cncc(CN7CCCCC7)c6)cc45)cc23)CC1 [Compound 239] | 28.8
6) O=C(Nc1cncc(-c2cnc3[nH]nc(-c4cc5c(N6CCCCC6)nccc5[nH]4)c3c2)c1)C1CC1 [Compound 188] | 0
7) CC(C)C(=O)Nc1cncc(-c2cnc3[nH]nc(-c4cc5c(N6CCN(C)CC6)nccc5[nH]4)c3c2)c1 [Compound 233] | 34
8) c1cc(-c2cnc3[nH]nc(-c4cc5c(N6CCCCC6)nccc5[nH]4)c3c2)ccn1 [Compound 186] | 0
9) CN1CCN(c2nccc3[nH]c(-c4n[nH]c5ncc(-c6cncc(NC(=O)CC7CCNCC7)c6)cc45)cc23)CC1 [Compound 641] | 0
10) CCNCc1cncc(-c2cnc3[nH]nc(-c4cc5c(-c6cc(F)cc(CNS(C)(=O)=O)c6)nccc5[nH]4)c3c2)c1 [Compound 482] | 0
11) Nc1cncc(-c2cnc3[nH]nc(-c4cc5c(-c6ccncc6)nccc5[nH]4)c3c2)c1 [Compound 115] | 53.8
12) O=C(Nc1cncc(-c2cnc3[nH]nc(-c4cc5c(-c6ccccc6F)nccc5[nH]4)c3c2)c1)C1CCCC1 [Compound 78] | 12.7
13) CN1CCN(c2nccc3[nH]c(-c4n[nH]c5ncc(-c6cncnc6)cc45)cc23)CC1 [Compound 251] | 24.7
14) O=C(Nc1cncc(-c2cnc3[nH]nc(-c4cc5cnccc5[nH]4)c3c2)c1)c1ccccc1 [Compound 263] | 0
15) O=C(Nc1cncc(-c2cnc3[nH]nc(-c4cc5c(-c6ccccc6F)nccc5[nH]4)c3c2)c1)c1ccccc1 [Compound 67] | 6.3
16) CS(=O)(=O)NCc1cc(F)cc(-c2nccc3[nH]c(-c4n[nH]c5ncc(-c6cncc(NC(=O)C7CCCCC7)c6)cc45)cc23)c1 [Compound 499] | 23.6
17) CC(C)CC(=O)Nc1cncc(-c2cnc3[nH]nc(-c4cc5c(-c6cc(F)cc(CNS(C)(=O)=O)c6)nccc5[nH]4)c3c2)c1 [Compound 478] | 0
18) CS(=O)(=O)NCc1cc(F)cc(-c2nccc3[nH]c(-c4n[nH]c5ncc(-c6cncc(CNCc7ccccc7)c6)cc45)cc23)c1 [Compound 500] | 18.3
